Hello, the source for this data is PubChem BioAssay AID2060499, in case you need it.

Tested on: 777334-354-R2-J4-PDC tumor spheroids with HUVEC/MSC, viability
Experiment: Anticancer human tumor 777334-354-R2-J4-PDC patient-derived pancreatic adenocarcinoma cell line growth inhibition [GQUAD]
Settings: second compound 3.16 µM; first compound 0.0999 µM; hits give low values
Description: DNA G-quadruplex Stabilizer Agents in Combinations in Complex Spheroids A high-throughput screen of multi-cell type tumor spheroids was designed to identify active combinations of DNA G-quadruplex stabilizer agents and targeted small molecules. […] Compounds. […] If the clinical Cmax for an agent had not been determined, the highest concentration tested was 10 microM. […]
assayMetric: viability, T/C (%)
Your answer is read as %, so omit the unit and give the number.

Q) Value wanted: viability, T/C (777334-354-R2-J4-PDC tumor spheroids with HUVEC/MSC, viability) of entry Cn1ncnc1[C@H]1c2n[nH]c(=O)c3cc(F)cc(c23)N[C@@H]1c1ccc(F)cc1 + Cc1cnc(CNC(=O)c2c(=O)c3ccc(N4CCCN(C)CC4)nc3n3c2sc2ccccc23)cn1
A) 61

Q) // same read-out, input: Cn1ncnc1[C@H]1c2n[nH]c(=O)c3cc(F)cc(c23)N[C@@H]1c1ccc(F)cc1 + Cc1[nH]c2ccc(F)cc2c1-c1nc2c3cccnc3c3ncccc3c2[nH]1
A) 28.6

Q) // same read-out, input: CC[C@@]1(O)C(=O)OCc2c1cc1n(c2=O)Cc2cc3c(CN(C)C)c(O)ccc3nc2-1 + Cc1cnc(CNC(=O)c2c(=O)c3ccc(N4CCCN(C)CC4)nc3n3c2sc2ccccc23)cn1
A) 54.9

Q) // same read-out, input: CC[C@@]1(O)C(=O)OCc2c1cc1n(c2=O)Cc2cc3c(CN(C)C)c(O)ccc3nc2-1 + Cc1[nH]c2ccc(F)cc2c1-c1nc2c3cccnc3c3ncccc3c2[nH]1
A) 15.9

---

System: 777334-354-R2-J4-PDC tumor spheroids with HUVEC/MSC, viability
Experiment: Anticancer human tumor 777334-354-R2-J4-PDC cell line growth inhibition [GQUAD];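 note: spheroids exposed to compounds for 7 days before readout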
Details: second compound 3.16 µM; first compound 1 µM; hits give low values
Rule: viability, T/C below 50% gives yes (1), anything at or above gives no (0).

Q) Does the reported viability, T/C of the following compound sit strictly below 50%? CCCS(=O)(=O)Nc1ccc(F)c(C(=O)c2c[nH]c3ncc(-c4ccc(Cl)cc4)cc23)c1F + Cc1[nH]c2ccc(F)cc2c1-c1nc2c3cccnc3c3ncccc3c2[nH]1
A) yes (1)

Q) // same read-out, input: CC(C)n1c(=O)n(C)c2cnc3cc(F)c(-c4ccc(OCCCN5CCCCC5)nc4)cc3c21 + Cc1cnc(CNC(=O)c2c(=O)c3ccc(N4CCCN(C)CC4)nc3n3c2sc2ccccc23)cn1
A) no (0)

Q) // same read-out, input: CC(C)(O)C1CCC(Nc2ccc3ncc(-c4cccc(C(F)(F)F)c4)n3n2)CC1 (stereo not given) + Cc1[nH]c2ccc(F)cc2c1-c1nc2c3cccnc3c3ncccc3c2[nH]1
A) yes (1)

Q) // same read-out, input: Cc1cccc(N(C)C(=O)C2C(O)CCN2c2nc(C)cc(C(F)(F)F)c2C#N)c1 (stereo not given) + Cc1cnc(CNC(=O)c2c(=O)c3ccc(N4CCCN(C)CC4)nc3n3c2sc2ccccc23)cn1
A) no (0)

Q) // same read-out, input: CC(=O)O[C@H]1C(=O)[C@@]2(C)[C@H]([C@H](OC(=O)c3ccccc3)[C@]3(O)C[C@H](OC(=O)[C@H](O)[C@@H](NC(=O)c4ccccc4)c4ccccc4)C(C)=C1C3(C)C)[C@]1(OC(C)=O)CO[C@@H]1C[C@@H]2O + CN(C)c1ccc(Nc2c3ccc(NC(=O)CCN4CCCC4)cc3nc3cc(NC(=O)CCN4CCCC4)ccc23)cc1
A) yes (1)

Q) // same read-out, input: CCCS(=O)(=O)Nc1ccc(F)c(C(=O)c2c[nH]c3ncc(-c4ccc(Cl)cc4)cc23)c1F + Cc1cnc(CNC(=O)c2c(=O)c3ccc(N4CCCN(C)CC4)nc3n3c2sc2ccccc23)cn1
A) no (0)

Q) // same read-out, input: CC1COCCN1c1cc(C2(S(C)(=N)=O)CC2)nc(-c2ccnc3[nH]ccc23)n1 (stereo not given) + CN(C)c1ccc(Nc2c3ccc(NC(=O)CCN4CCCC4)cc3nc3cc(NC(=O)CCN4CCCC4)ccc23)cc1
A) no (0)

Q) // same read-out, input: CCCS(=O)(=O)Nc1ccc(F)c(C(=O)c2c[nH]c3ncc(-c4ccc(Cl)cc4)cc23)c1F + CN(C)c1ccc(Nc2c3ccc(NC(=O)CCN4CCCC4)cc3nc3cc(NC(=O)CCN4CCCC4)ccc23)cc1
A) no (0)

Q) // same read-out, input: COc1ncnc(C2CC2)c1-c1ncc2cnn(Cc3ccc(-c4nc(C(F)(F)F)cn4C(C)C)cc3)c2n1 + Cc1cnc(CNC(=O)c2c(=O)c3ccc(N4CCCN(C)CC4)nc3n3c2sc2ccccc23)cn1
A) no (0)

Q) // same read-out, input: CC1COCCN1c1cc(C2(S(C)(=N)=O)CC2)nc(-c2ccnc3[nH]ccc23)n1 (stereo not given) + Cc1[nH]c2ccc(F)cc2c1-c1nc2c3cccnc3c3ncccc3c2[nH]1
A) yes (1)

Q) // same read-out, input: COc1ccc([C@@H](O)c2cc(-c3ncnc4cc(N5CCOCC5)ccc34)c(F)cc2Cl)nn1 + CN(C)c1ccc(Nc2c3ccc(NC(=O)CCN4CCCC4)cc3nc3cc(NC(=O)CCN4CCCC4)ccc23)cc1
A) no (0)

Q) // same read-out, input: C#Cc1c(F)ccc2cc(O)cc(-c3ncc4c(N5CC6CCC(C5)N6)nc(OCC56CCCN5CC(F)C6)nc4c3F)c12 (stereo not given) + Cc1[nH]c2ccc(F)cc2c1-c1nc2c3cccnc3c3ncccc3c2[nH]1
A) yes (1)

Q) // same read-out, input: C=CCn1c(=O)c2cnc(Nc3ccc(N4CCN(C)CC4)cc3)nc2n1-c1cccc(C(C)(C)O)n1 + Cc1[nH]c2ccc(F)cc2c1-c1nc2c3cccnc3c3ncccc3c2[nH]1
A) yes (1)

Q) // same read-out, input: C=CCn1c(=O)c2cnc(Nc3ccc(N4CCN(C)CC4)cc3)nc2n1-c1cccc(C(C)(C)O)n1 + Cc1cnc(CNC(=O)c2c(=O)c3ccc(N4CCCN(C)CC4)nc3n3c2sc2ccccc23)cn1
A) yes (1)

Q) // same read-out, input: COc1ccc([C@@H](O)c2cc(-c3ncnc4cc(N5CCOCC5)ccc34)c(F)cc2Cl)nn1 + Cc1[nH]c2ccc(F)cc2c1-c1nc2c3cccnc3c3ncccc3c2[nH]1
A) yes (1)

Q) // same read-out, input: C=CC(=O)N1CCN(c2nc(=O)n(-c3c(C)ccnc3C(C)C)c3nc(-c4c(O)cccc4F)c(F)cc23)C(C)C1 (stereo not given) + Cc1cnc(CNC(=O)c2c(=O)c3ccc(N4CCCN(C)CC4)nc3n3c2sc2ccccc23)cn1
A) no (0)

Q) // same read-out, input: COc1cccc2c1C(=O)c1c(O)c3c(c(O)c1C2=O)CC(O)(C(=O)CO)CC3OC1CC(N)C(O)C(C)O1 (stereo not given) + CN(C)c1ccc(Nc2c3ccc(NC(=O)CCN4CCCC4)cc3nc3cc(NC(=O)CCN4CCCC4)ccc23)cc1
A) yes (1)

Q) // same read-out, input: O=C(c1cc(Cc2n[nH]c(=O)c3ccccc23)ccc1F)N1CCN(C(=O)C2CC2)CC1 + CN(C)c1ccc(Nc2c3ccc(NC(=O)CCN4CCCC4)cc3nc3cc(NC(=O)CCN4CCCC4)ccc23)cc1
A) no (0)

Q) // same read-out, input: CC1COCCN1c1cc(C2(S(C)(=N)=O)CC2)nc(-c2ccnc3[nH]ccc23)n1 (stereo not given) + Cc1cnc(CNC(=O)c2c(=O)c3ccc(N4CCCN(C)CC4)nc3n3c2sc2ccccc23)cn1
A) no (0)
